- system: 5-HT2A receptor (Homo sapiens (Human))
- assay remarks: cell-based
- Format: cell-based
- condition label: HEK-293T, read-out: β-arrestin2 signaling agonistic activity (percentage in parentheses)
attribute measured: Emax (%)
Write the answer as a number in %, unit excluded.

Prompt: // returns reported Emax for input `COc1ccc(CCN2CC[C@H]3[C@@H](C2)c2cccc4c2N3CCN4C)cc1`
Completion: 3.2

Prompt: Repeat with `CN1CCN2c3c(cccc31)[C@@H]1CN(Cc3ccccc3O)CC[C@@H]12`
Completion: 68.4

Prompt: Repeat with `COc1cccc(CCN2CC[C@H]3[C@@H](C2)c2cccc4c2N3CCN4C)c1`
Completion: 44.2

Prompt: Repeat with `COc1ccccc1CCN1CC[C@H]2[C@@H](C1)c1cccc3c1N2CCN3C`
Completion: 39

* * *

- assay remarks: in vivo
- condition label: male, C57, mouse, ip, 10 mg/kg, MRT, brain, 10 mg/kg IP, mice
attribute measured: MRT (h)
Write the answer as a number in h, unit excluded.

Prompt: // returns reported MRT for input COc1ccccc1CCCN1CC[C@H]2[C@@H](C1)c1cccc3c1N2CCN3C [Compound I-10]
Completion: 1.53

* * *

- assay remarks: in vivo
- condition label: male, C57, mouse, ip, 10 mg/kg, tmax, plasma, 10 mg/kg IP, mice
attribute measured: Tmax (min)
Write the answer as a number in min, unit excluded.

Prompt: // returns reported Tmax for input `COc1ccccc1CCCN1CC[C@H]2[C@@H](C1)c1cccc3c1N2CCN3C`
Completion: 4.98

* * *

- assay remarks: in vivo
- condition label: male, C57, mouse, ip, 10 mg/kg
attribute measured: AUC0-t (ng·h/mL)
Write the answer as a number in ng·h/mL, unit excluded.

Prompt: // returns reported AUC0-t for input `COc1ccccc1CCCN1CC[C@H]2[C@@H](C1)c1cccc3c1N2CCN3C`
Completion: 576

* * *

- system: 5-HT2A receptor (Homo sapiens (Human), UniProt P28223)
- Sequence (P28223 whole entry): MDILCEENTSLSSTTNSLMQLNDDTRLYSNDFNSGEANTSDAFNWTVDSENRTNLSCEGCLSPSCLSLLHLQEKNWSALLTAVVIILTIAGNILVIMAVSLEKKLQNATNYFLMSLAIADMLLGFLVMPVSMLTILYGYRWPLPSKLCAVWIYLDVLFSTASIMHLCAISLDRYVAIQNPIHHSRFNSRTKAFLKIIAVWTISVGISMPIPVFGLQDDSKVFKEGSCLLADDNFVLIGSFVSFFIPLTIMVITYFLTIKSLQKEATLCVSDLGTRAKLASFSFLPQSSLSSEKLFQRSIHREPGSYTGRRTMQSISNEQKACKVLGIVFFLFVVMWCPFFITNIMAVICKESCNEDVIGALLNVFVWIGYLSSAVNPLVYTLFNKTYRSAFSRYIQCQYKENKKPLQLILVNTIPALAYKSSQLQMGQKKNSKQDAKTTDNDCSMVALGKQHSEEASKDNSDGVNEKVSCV
- assay remarks: radioligand competitive binding assay, [3H]-LSD, 293T membranes
- condition label: affinity for the 5-HT2A receptor, [3H]-LSD
Please provide measured pKi for the entries that follow.
Worth noting: pKi values are minus log10 of concentrations stated in mol/L.

Prompt: // returns reported pKi for input COc1ccccc1CCCN1CC[C@@H]2[C@H](C1)c1cccc3c1N2CCC3 (single isomer, unassigned)
Completion: 7.74

Prompt: Repeat with `COc1ccc(OC)c(CCN2CC[C@H]3[C@@H](C2)c2cccc4c2N3CCN4C)c1`
Completion: 5.51

Prompt: Repeat with `CN1CCN2c3c(cccc31)[C@@H]1CN(CCc3ccccc3O)CC[C@@H]12`
Completion: 7.51

Prompt: Repeat with COc1ccccc1CCN1CC[C@@H]2[C@H](C1)c1cccc3c1N2CCCN3C (single isomer, unassigned)
Completion: 7.47

Prompt: Repeat with COc1ccccc1CCCN1CC[C@H]2[C@@H](C1)c1cccc3c1N2CCCS3 (single isomer, unassigned)
Completion: 7.03

Prompt: Repeat with `COc1ccccc1CCCN1CC[C@@H]2[C@H](C1)c1cccc3c1N2CCCS3`
Completion: 8.10

Prompt: Repeat with `CN1CCN2c3c(cccc31)[C@@H]1CN(CCCc3ccccc3O)CC[C@@H]12`
Completion: 7.05

Prompt: Repeat with COc1ccccc1CCN1CC[C@H]2[C@@H](C1)c1cccc3c1N2CCCN3C (single isomer, unassigned)
Completion: 6.72

* * *

- system: 5-HT2A receptor (Homo sapiens (Human), UniProt P28223)
- assay remarks: cell-based
- Format: cell-based
Please provide measured pEC50 for the entries that follow.
Worth noting: pEC50 values are minus log10 of concentrations stated in mol/L.

Prompt: // returns reported pEC50 for input COc1ccccc1CCN1CC[C@@H]2[C@H](C1)c1cccc3c1N2CCCN3C (single isomer, unassigned)
Completion: 6.74

Prompt: Repeat with `COc1ccc(CCN2CC[C@H]3[C@@H](C2)c2cccc4c2N3CCN4C)cc1`
Completion: 6.17

Prompt: Repeat with `CN1CCN2c3c(cccc31)[C@@H]1CN(CCc3ccccc3O)CC[C@@H]12`
Completion: 7.12

Prompt: Repeat with COc1ccccc1CCCN1CC[C@@H]2[C@H](C1)c1cccc3c1N2CCCN3C (single isomer, unassigned)
Completion: 7.01

Prompt: Repeat with `COc1ccccc1CCCN1CC[C@H]2[C@@H](C1)c1cccc3c1N2CCN3C`
Completion: 6.69

Prompt: Repeat with COc1ccccc1CCCN1CC[C@@H]2[C@H](C1)c1cccc3c1N2CCC3 (single isomer, unassigned)
Completion: 6.25

Prompt: Repeat with `COc1ccccc1CCCN1CC[C@@H]2[C@H](C1)c1cccc3c1N2CCCS3`
Completion: 6.06
